TARGET_OR_TEST_SYSTEM: T1, HsLARP6(70-300) K86A (Homo sapiens, UniProt Q9BRS8 70-300, K86A)
T1 sequence: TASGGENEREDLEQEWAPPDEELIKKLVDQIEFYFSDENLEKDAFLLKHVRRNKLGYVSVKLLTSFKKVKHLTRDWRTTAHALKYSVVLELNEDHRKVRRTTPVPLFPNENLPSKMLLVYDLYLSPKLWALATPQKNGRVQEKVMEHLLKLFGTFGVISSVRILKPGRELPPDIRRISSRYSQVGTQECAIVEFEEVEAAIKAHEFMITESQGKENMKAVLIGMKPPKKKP
RUN_DESCRIPTION: ITC; ITC: 20 mM Tris pH 7.25, 100 mM KCl, 5 mM MgCl2, 1 mM DTT, 298 K; protein titrated into RNA
ASSAY_CONTEXT: protein: recombinant; tags: N-terminal His6 (TEV-cleavable); stem-loop with internal bulge
EXPERIMENTAL_ENDPOINT: Kd (nM)

1) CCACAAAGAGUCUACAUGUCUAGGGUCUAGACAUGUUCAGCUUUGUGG (structured_RNA) [48 nt RNA (collagen alpha1(I) 5' UTR SL)] : 77
